# Tested on: HT-29
# Assay Overview: Cytotoxicity against human HT29 cells after 48 hrs by SRB assay
# Format: functional, cell-based
# Protocol Conditions: Homo sapiens, HT-29, 48 h; read-out: LC50 (the source's name)
One threshold, 0.6 µM, splits the recorded CC50 values: lower ones are met, equal or higher ones are not met.

IN: Determine if C/C=C1\NC(=O)[C@H](Cc2ccccc2)NC(=O)[C@@H](C(C)C)NC(=O)[C@@H]([C@H](C)CC)NC(=O)[C@H](NC(=O)[C@H](NC(=O)[C@H](CCCN)NC(=O)[C@H]2CCCN2C(=O)[C@H](NC(=O)[C@@H](NC(=O)[C@@H](NC(=O)[C@H](NC(=O)CCCCCCCCCC)C(C)C)[C@@H](C)O)C(C)C)C(C)C)[C@H](C)CC)[C@H](C)OC(=O)[C@H](C(C)C)NC1=O shows CC50 strictly lower than 0.6 µM.
OUT: met

IN: Determine if C/C=C1\NC(=O)[C@H](Cc2ccccc2)NC(=O)[C@@H](C(C)C)NC(=O)[C@@H]([C@H](C)CC)NC(=O)[C@H](NC(=O)[C@H](NC(=O)[C@H](CCC(=O)O)NC(=O)[C@H]2CCCN2C(=O)[C@H](NC(=O)[C@@H](NC(=O)[C@@H](NC(=O)[C@H](NC(=O)CCCC(C)C)C(C)C)[C@@H](C)O)C(C)C)C(C)C)[C@H](C)CC)[C@H](C)OC(=O)[C@H](C(C)C)NC1=O shows CC50 strictly lower than 0.6 µM.
OUT: not met

IN: Determine if C/C=C1\NC(=O)[C@H](Cc2ccccc2)NC(=O)[C@@H](C(C)C)NC(=O)[C@@H]([C@H](C)CC)NC(=O)[C@H](NC(=O)[C@H](NC(=O)[C@H](CCCN)NC(=O)[C@H]2CCCN2C(=O)[C@H](NC(=O)[C@@H](NC(=O)[C@@H](NC(=O)[C@H](NC(=O)Cc2cc(F)cc(F)c2)C(C)C)[C@@H](C)O)C(C)C)C(C)C)[C@H](C)CC)[C@H](C)OC(=O)[C@H](C(C)C)NC1=O shows CC50 strictly lower than 0.6 µM.
OUT: met

IN: Determine if C/C=C1\NC(=O)[C@H](Cc2ccccc2)NC(=O)[C@@H](C(C)C)NC(=O)[C@@H]([C@H](C)CC)NC(=O)[C@H](NC(=O)[C@H](NC(=O)[C@H](CCCN)NC(=O)[C@H]2CCCN2C(=O)[C@H](NC(=O)[C@@H](NC(=O)[C@H](C)NC(=O)[C@H](NC(=O)CCCC(C)C)C(C)C)C(C)C)C(C)C)[C@H](C)CC)[C@H](C)OC(=O)[C@H](C(C)C)NC1=O shows CC50 strictly lower than 0.6 µM.
OUT: met

IN: Determine if C/C=C1\NC(=O)[C@H](Cc2ccccc2)NC(=O)[C@@H](C(C)C)NC(=O)[C@@H]([C@H](C)CC)NC(=O)[C@H](NC(=O)[C@H](NC(=O)[C@H](CCCN)NC(=O)[C@@H]2CC[C@H](c3ccccc3)N2C(=O)[C@H](NC(=O)[C@@H](NC(=O)[C@@H](NC(=O)[C@H](NC(=O)CC[C@@H](C)CC)C(C)C)[C@@H](C)O)C(C)C)C(C)C)[C@H](C)CC)[C@H](C)OC(=O)[C@H](C(C)C)NC1=O shows CC50 strictly lower than 0.6 µM.
OUT: not met

The measurements presented in this section are drawn from ChEMBL document CHEMBL1156597.
